- PROTOCOL_SUMMARY: Cytotoxicity against BC cells (sulforhodamine B staining)
- Type: cell-based
- EXPERIMENTAL_PARAMETERS: human, BC cells (breast cancer), starting concentration 20 μg/ml
This listing pairs molecules with measured IC50 at 3 days.

{"columns": ["MOLECULE", "UNIT_DESCRIPTOR", "MODIFIER_SIGN", "IC50 at 3 days"],
 "data": [
  ["C=CC1C=CC2C3CC(C)CCC3C3Oc4ccc(cc4)CC4(O)NC(=O)C5(OC45)C(=O)C1C23 (stereo not shown)", "µg/mL", "=", 3.2],
  ["Cc1c2ccncc2c(C)c2c1[nH]c1ccccc12 [Ellipticine, reference compound]", "µg/mL", "=", 1.5],
  ["C=CC1C=CC2C3CC(C)CCC3C3Oc4ccc(cc4)CC4(O)CC(C(=O)N4)C(=O)C1C23 (stereo not shown)", "µg/mL", ">", 20],
  ["C=CC1C=CC2C3CC(C)CCC3C3Oc4ccc(cc4)CC4C(=O)NC(=O)C4C(=O)C1C23 (stereo not shown)", "µg/mL", ">", 20]
]}

* * *

- PROTOCOL_SUMMARY: Cytotoxicity against NCI-H187 cells (sulforhodamine B staining)
- Type: cell-based
- EXPERIMENTAL_PARAMETERS: human, NCI-H187 cells (lung cancer, ATCC CRL-5804), starting concentration 20 μg/ml

{"columns": ["COMPOUND", "UNIT_DESCRIPTOR", "MODIFIER_SIGN", "IC50 at 3 days"],
 "data": [
  ["C=CC1C=CC2C3CC(C)CCC3C3Oc4ccc(cc4)CC4(O)CC(C(=O)N4)C(=O)C1C23 (stereo not shown)", "µg/mL", "=", 6],
  ["Cc1c2ccncc2c(C)c2c1[nH]c1ccccc12 [Ellipticine, reference compound]", "µg/mL", "=", 0.39],
  ["C=CC1C=CC2C3CC(C)CCC3C3Oc4ccc(cc4)CC4(O)NC(=O)C5(OC45)C(=O)C1C23 (stereo not shown)", "µg/mL", "=", 8.3],
  ["C=CC1C=CC2C3CC(C)CCC3C3Oc4ccc(cc4)CC4C(=O)NC(=O)C4C(=O)C1C23 (stereo not shown)", "µg/mL", ">", 20]
]}

* * *

- PROTOCOL_SUMMARY: Cytotoxicity against Vero cells (sulforhodamine B staining)
- Format: cell-based
- EXPERIMENTAL_PARAMETERS: African green monkey, Vero cells (ATCC CCL-81), 37° C.
This listing pairs compounds with measured IC50 at 3 days.

{"columns": ["COMPOUND", "MODIFIER_SIGN", "IC50 at 3 days, µg/mL"],
 "data": [
  ["C=CC1C=CC2C3CC(C)CCC3C3Oc4ccc(cc4)CC4(O)NC(=O)C5(OC45)C(=O)C1C23 (stereo not shown) [Hirsutellone C]", "=", 12],
  ["C=CC1C=CC2C3CC(C)CCC3C3Oc4ccc(cc4)CC4C(=O)NC(=O)C4C(=O)C1C23 (stereo not shown) [Hirsutellone A]", ">", 50],
  ["Cc1c2ccncc2c(C)c2c1[nH]c1ccccc12 [Ellipticine, reference compound]", "=", 0.4],
  ["C=CC1C=CC2C3CC(C)CCC3C3Oc4ccc(cc4)CC4(O)CC(C(=O)N4)C(=O)C1C23 (stereo not shown) [Hirsutellone B]", ">", 50]
]}
